- Target Desc: TPC2 (Homo sapiens, UniProt Q8NHX9)
- Construct: gene TPCN2; hTPC2, C-terminal YFP
- Sequence (Q8NHX9 whole entry): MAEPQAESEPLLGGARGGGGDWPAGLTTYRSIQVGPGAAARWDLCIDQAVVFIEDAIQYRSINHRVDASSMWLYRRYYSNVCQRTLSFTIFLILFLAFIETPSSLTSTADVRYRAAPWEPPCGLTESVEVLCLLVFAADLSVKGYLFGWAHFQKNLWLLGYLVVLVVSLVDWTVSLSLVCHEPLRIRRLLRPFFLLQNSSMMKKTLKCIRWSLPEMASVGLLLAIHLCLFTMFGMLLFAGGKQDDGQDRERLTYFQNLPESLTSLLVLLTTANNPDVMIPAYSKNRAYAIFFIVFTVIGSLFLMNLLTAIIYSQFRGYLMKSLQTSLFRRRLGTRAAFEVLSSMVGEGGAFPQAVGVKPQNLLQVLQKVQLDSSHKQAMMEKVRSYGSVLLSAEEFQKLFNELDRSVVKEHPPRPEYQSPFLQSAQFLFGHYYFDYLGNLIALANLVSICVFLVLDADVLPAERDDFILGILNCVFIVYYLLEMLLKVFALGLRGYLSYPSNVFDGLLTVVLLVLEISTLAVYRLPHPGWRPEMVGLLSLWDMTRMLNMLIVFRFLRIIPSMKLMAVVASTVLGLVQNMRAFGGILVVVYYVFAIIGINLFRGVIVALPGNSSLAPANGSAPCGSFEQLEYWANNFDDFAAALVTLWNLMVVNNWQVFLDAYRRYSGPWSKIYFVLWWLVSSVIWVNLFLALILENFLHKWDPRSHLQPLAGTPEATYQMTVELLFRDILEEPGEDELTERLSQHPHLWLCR
- Protocol Summary: endo-lysosomal patch-clamp (also FLIPR Ca2+ assay, EC50 […])
- Type: cell-based
Readout: pEC50
Scale explanation: pEC50 corresponds to minus log10 of a concentration expressed in moles per litre.

TPC2 (Homo sapiens, UniProt Q8NHX9) assay, compound `Cc1c(C(=O)O)cc(-c2cc(Br)ccc2OC(F)(F)F)n1CC1CCCCC1` , recorded pEC50 = 6.22
